Just for reference, patent US10550073B2 is where these values come from.

target_or_system: p38a (Homo sapiens (Human))
Sequence (Q16539 whole entry): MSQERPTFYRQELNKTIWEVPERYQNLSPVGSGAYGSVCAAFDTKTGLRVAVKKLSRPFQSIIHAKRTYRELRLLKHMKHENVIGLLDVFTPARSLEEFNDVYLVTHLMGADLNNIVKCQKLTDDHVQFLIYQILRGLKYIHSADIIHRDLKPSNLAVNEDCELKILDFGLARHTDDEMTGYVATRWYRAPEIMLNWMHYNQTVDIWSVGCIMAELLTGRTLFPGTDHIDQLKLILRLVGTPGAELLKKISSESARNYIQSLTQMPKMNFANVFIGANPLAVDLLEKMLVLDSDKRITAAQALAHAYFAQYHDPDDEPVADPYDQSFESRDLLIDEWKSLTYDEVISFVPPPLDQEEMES
Recorded measurements of IC50, one per entry
measure: IC50

- molecule: "CCCCCNC(=O)c1ccc(-c2cc(C(=O)NC3CC3)cc(F)c2C)nc1 [Example 9]"
  test_result: "5 to 10 nM"
- molecule: "Cc1c(F)cc(C(=O)NC2CC2)cc1-c1ccc(C(=O)N(C)CC(C)C)nc1 [Example 16]"
  test_result: "< 5 nM"
- molecule: "Cc1c(F)cc(C(=O)NC2CC2)cc1-c1ccc(C(=O)NCCC(C)C)nn1 [Example 60]"
  test_result: "< 5 nM"
- molecule: "Cc1c(F)cc(C(=O)NC2CC2)cc1-c1ccc2nc(NCC(C)C)sc2c1 [Example 51]"
  test_result: "5 to 10 nM"
- molecule: "C=CCNC(=O)c1cc(F)c(C)c(-c2ccc(C(=O)NC3CCCC3)nn2)c1 [Example 79]"
  test_result: "< 5 nM"
- molecule: "Cc1c(F)cc(C(=O)NC2CC2)cc1-c1ccc(C(=O)NCC(C)C)c(F)c1 [Example 30]"
  test_result: "< 5 nM"
- molecule: "Cc1cc(-c2cc(C(=O)NC3CC3)cc(F)c2C)ccc1C(=O)NCC(C)C [Example 44]"
  test_result: "5 to 10 nM"
- molecule: "Cc1c(F)cc(C(=O)NC2CC2)cc1-c1ccc(C(=O)N(C)CC(C)C)c(F)c1 [Example 31]"
  test_result: "< 5 nM"
- molecule: "C=CCNC(=O)c1cc(F)c(C)c(-c2ccc(C(=O)NC3CCCCC3)nn2)c1 [Example 80]"
  test_result: "< 5 nM"

---

target_or_system: UniProtKB P11712
Sequence (P11712 whole entry): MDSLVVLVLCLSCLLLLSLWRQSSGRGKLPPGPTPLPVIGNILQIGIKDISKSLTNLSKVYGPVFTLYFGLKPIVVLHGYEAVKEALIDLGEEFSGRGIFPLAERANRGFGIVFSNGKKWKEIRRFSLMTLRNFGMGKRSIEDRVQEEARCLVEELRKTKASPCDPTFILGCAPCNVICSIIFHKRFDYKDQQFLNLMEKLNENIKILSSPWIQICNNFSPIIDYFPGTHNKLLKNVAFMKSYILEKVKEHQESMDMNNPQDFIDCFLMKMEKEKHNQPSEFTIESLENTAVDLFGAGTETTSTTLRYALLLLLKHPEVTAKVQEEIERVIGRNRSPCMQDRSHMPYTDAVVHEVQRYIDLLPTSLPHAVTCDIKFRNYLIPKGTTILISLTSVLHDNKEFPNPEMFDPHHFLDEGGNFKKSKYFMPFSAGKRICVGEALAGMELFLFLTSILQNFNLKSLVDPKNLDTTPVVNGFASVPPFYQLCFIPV
test_name: CYP450 enzyme inhibition test in human liver microsome
Format: in vitro ADME
reported_conditions: CYP450 2C9, LC-MS/MS
pIC50: −log10 of the molar value.

- compound: "Cc1c(F)cc(C(=O)NC2CC2)cc1-c1ccc(C(=O)NC2CCCC2)nn1"
  pIC50: "< 4.30"
- compound: "Cc1c(F)cc(C(=O)NC2CC2)cc1-c1ccc(C(=O)NCC(C)(C)C)c(N)c1"
  pIC50: "< 4.30"
- compound: "Cc1c(F)cc(C(=O)NC2CC2)cc1-c1ccc(C(=O)NCC(C)(C)C)nn1"
  pIC50: "< 4.30"
- compound: "Cc1c(F)cc(C(=O)NC2CC2)cc1-c1ccc(C(=O)NC2CCCCC2)nn1"
  pIC50: "< 4.30"
- compound: "Cc1c(F)cc(C(=O)NC2CC2)cc1-c1ccc(C(=O)N(C)CC(C)C)nc1"
  pIC50: "< 4.30"
- compound: "Cc1c(F)cc(C(=O)NC2CC2)cc1-c1ccc(C(=O)NCC2CC2)nn1"
  pIC50: "< 4.30"
- compound: "CCC(C)NC(=O)c1ccc(-c2cc(C(=O)NC3CC3)cc(F)c2C)nn1 (stereo not shown)"
  pIC50: "< 4.30"
- compound: "Cc1c(F)cc(C(=O)NC2CC2)cc1-c1ccc(C(=O)NCC(C)C)nn1"
  pIC50: "< 4.30"
- compound: "Cc1cc(-c2cc(C(=O)NC3CC3)cc(F)c2C)ccc1C(=O)NCC(C)C"
  pIC50: "< 4.30"
- compound: "Cc1c(F)cc(C(=O)NC2CC2)cc1-c1ccc(C(=O)N(C)CC(C)C)nn1"
  pIC50: "< 4.30"
